The label Condition met is reserved for melting point strictly under 200 °C; Condition not met covers values equal to or above it.

See these solved cases before continuing.
compound: CCCCc1ccc(N2C(=O)N(CC(=O)Nc3c(C(C)C)cccc3C(C)C)C(=O)C23CCCCC3)cc1 [compound (I.38)]
cat: Condition not met

compound: CCCCc1ccc(N2C(=O)N(CC(=O)Nc3c(C(C)C)cccc3C(C)C)C(=O)C23CCCC3)cc1 [compound (I.40)]
cat: Condition not met

compound: CCCN1C(=O)N(CC(=O)Nc2c(CC)cccc2CC)C(=O)C12CCCCC2 [compound (I.55)]
cat: Condition not met

compound: Cc1ccc(N2C(=O)N(CC(=O)Nc3c(C)cccc3Cl)C(=O)C23CCCCC3)cc1 [compound (I.46)]
cat: Condition not met

compound: CC(C)c1cccc(C(C)C)c1NC(=O)CN1C(=O)N(c2ccc(F)cc2)C2(CCCC2)C1=O [compound (I.17)]
cat: Condition not met

compound: CC(C)c1cccc(C(C)C)c1NC(=O)CN1C(=O)N(CCc2ccccc2)C2(CCCCC2)C1=O [compound (I.23)]
cat: Condition not met

Then this compound:
Please state whether melting point is below 200 °C for CCc1ccc(N2C(=O)N(CC(=O)Nc3c(C(C)C)cccc3C(C)C)C(=O)C23CCCCC3)cc1 [compound (I.36)]
Condition not met

###

Each entry below carries its recorded melting point.
# value in °C; strip the unit string

Solved entries (count: 5):
smiles_structure: Cc1ccc(N2C(=O)N(CC(=O)Nc3c(C)cccc3C(C)C)C(=O)C23CCCCC3)cc1
melting point (°C): 195
--
smiles_structure: CCCCCCN1C(=O)N(CC(=O)Nc2c(C(C)C)cccc2C(C)C)C(=O)C12CCCCC2
melting point (°C): 205
--
smiles_structure: CC(C)c1cccc(C(C)C)c1NC(=O)CN1C(=O)N(CC(C)(C)C)C2(CCCCC2)C1=O
melting point (°C): 250
--
smiles_structure: CCc1ccc(N2C(=O)N(CC(=O)Nc3c(CC)cccc3CC)C(=O)C23CCCCC3)cc1
melting point (°C): 188
--
smiles_structure: Cc1cccc(N2C(=O)N(CC(=O)Nc3c(C(C)C)cccc3C(C)C)C(=O)C23CCCCC3)c1
melting point (°C): 215

Here is the next item to consider.
Look up and report measured melting point for this entry: CCCCc1ccc(N2C(=O)N(CC(=O)Nc3c(CC)cccc3CC)C(=O)C23CCCCC3)cc1
171
